Molecular target: Voltage-gated inwardly rectifying potassium channel KCNH2 (Homo sapiens)
Sequence (Q12809 whole entry): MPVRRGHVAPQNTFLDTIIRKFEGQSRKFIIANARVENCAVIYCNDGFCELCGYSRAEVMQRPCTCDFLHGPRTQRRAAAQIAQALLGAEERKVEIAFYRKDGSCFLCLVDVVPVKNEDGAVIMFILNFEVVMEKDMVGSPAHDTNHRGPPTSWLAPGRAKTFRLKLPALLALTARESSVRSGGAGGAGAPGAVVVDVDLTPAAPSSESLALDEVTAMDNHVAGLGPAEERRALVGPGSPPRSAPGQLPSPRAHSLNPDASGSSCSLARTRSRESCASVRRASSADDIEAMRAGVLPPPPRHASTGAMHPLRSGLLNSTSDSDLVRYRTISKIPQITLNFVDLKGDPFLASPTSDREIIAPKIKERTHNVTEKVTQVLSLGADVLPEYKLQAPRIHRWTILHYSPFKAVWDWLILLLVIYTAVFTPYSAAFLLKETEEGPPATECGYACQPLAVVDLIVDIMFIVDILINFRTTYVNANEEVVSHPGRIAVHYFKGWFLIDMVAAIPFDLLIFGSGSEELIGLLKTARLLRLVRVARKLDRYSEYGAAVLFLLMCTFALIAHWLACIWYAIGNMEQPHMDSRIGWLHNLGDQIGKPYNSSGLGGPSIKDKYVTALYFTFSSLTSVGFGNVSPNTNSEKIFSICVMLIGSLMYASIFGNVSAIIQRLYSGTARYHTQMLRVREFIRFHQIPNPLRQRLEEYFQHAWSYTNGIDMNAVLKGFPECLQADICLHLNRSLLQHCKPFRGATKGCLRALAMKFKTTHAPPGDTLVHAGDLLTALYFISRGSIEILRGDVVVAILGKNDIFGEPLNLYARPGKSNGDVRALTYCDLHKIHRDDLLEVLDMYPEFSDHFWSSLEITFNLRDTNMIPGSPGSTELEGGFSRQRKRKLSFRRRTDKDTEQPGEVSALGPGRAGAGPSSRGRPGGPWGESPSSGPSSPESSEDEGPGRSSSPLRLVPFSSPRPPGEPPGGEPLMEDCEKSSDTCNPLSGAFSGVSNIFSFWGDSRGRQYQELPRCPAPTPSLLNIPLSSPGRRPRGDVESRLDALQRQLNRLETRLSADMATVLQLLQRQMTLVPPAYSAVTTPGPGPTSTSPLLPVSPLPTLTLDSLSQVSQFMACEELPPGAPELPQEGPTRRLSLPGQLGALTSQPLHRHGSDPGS
Experiment: Inhibition of hERG expressed in HEK293 cells by radioligand binding assay
IC50 overview

Please respond with reported IC50 (system Voltage-gated inwardly rectifying potassium channel KCNH2 (Homo sapiens)) for `CCn1c(CO)nn(-c2nc(O[C@@H](C)C(F)(F)F)c(C(=O)Nc3c(C)ccnc3Cl)cc2F)c1=O` .
> 10 µM

Now consider a different molecule.
Please respond with reported IC50 (system Voltage-gated inwardly rectifying potassium channel KCNH2 (Homo sapiens)) for `CCn1c(CO)nn(-c2nc(O[C@@H](C)C(F)(F)F)c(C(=O)Nc3c(C)cnc(OC)c3Cl)cc2F)c1=O` .
> 10 µM
